- test.name: NCI Yeast Anticancer Drug Screen. Data for the mec2-1 strain (AID 157)
- measurement.conditions: S. cerevisiae mec2-1 strain, at 5.0 µM (retest, dose inferred, filed as 0.5)
Compounds without any hit were thinned out: in the full panel of roughly 79,000, 15% have a hit. Active and inactive are the calls of the source. Rule as the data show it: active = growth inhibition above about 70%; inactive = the rest.
Classes to choose from: 1 (yes) (active), 0 (no) (inactive)

Before answering, review these 2 worked examples.
{"compound": "O=C1C(c2c[nH]c3ccccc23)=Nc2ccc(Br)cc21", "classification": "0 (no)"}
{"compound": "C=CCOc1ccc(-c2ccccc2)cc1C(=O)NC", "classification": "0 (no)"}

[Q] Look up the recorded call for `COc1ccc2c(c1)S(=O)(=O)C(c1ccccc1)=CC2=O` in this test.
[A] 1 (yes)

[Q] Look up the recorded call for `COC(=O)C(=O)C(/C=N/C(=S)NCCc1ccc(OC)c(OC)c1)=C(/O)c1ccc([N+](=O)[O-])cc1` in this test.
[A] 0 (no)

[Q] Look up the recorded call for `COc1ccc(-c2c(-c3ccccc3)c(C)nc3[nH]c(=S)[nH]c(=S)c23)cc1OC` in this test.
[A] 0 (no)

[Q] Look up the recorded call for `O=C1C2=C(CCCC2)C(=O)c2ccccc21` in this test.
[A] 0 (no)
